Overview of recorded %Inh for various compounds
# Tested on: PIK3CG;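 further: KINOMEscan kinase panel screen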
# Assay setup: concentration: 1 μM, replicates: in singlicate; n = 1
Quick note: give the figure in %, leave out the unit.

Compound: Nc1nc(-c2nccs2)c(-c2ccnc3ccccc23)s1 [GW693542]
%Inh / %: 0
--
Compound: Cc1cc(-c2ccc3c(c2)CC[C@@H](N[C@@H](C)c2ccccc2)C3)cnc1N.Cl [GW412617]
%Inh / %: 0
--
Compound: CCn1c(-c2ccccn2)nc2cnccc21 [SB-736398]
%Inh / %: 0
--
Compound: Fc1cccc(COc2nnc(-c3ccc4c(c3)CCO4)o2)c1
%Inh / %: 7
--
Compound: Cc1cccc(-c2nc(-c3ccc(S(C)(=O)=O)cc3)sc2-c2ccnc(NCCc3ccccc3)c2)c1
%Inh / %: 17

Input: // lookup %Inh for `COC(=O)c1c(-c2ccccc2)c2cc(C(=O)O)ccc2c(=O)n1Cc1ccccc1`
Output: 7

Numbers sourced from paper PMC5540273.
